Data credit: patent US7101878B1

biological target: UniProt:P30969; experiment: Radioligand binding, 125I-GnRH-A, rat pituitary membranes; design: membranes were prepared from rat pituitary; from tissue; host or cells: rat pituitary; conditions: read-out: rGnRH IC50
Kindly apply the following: Yes if IC50 is less than 100 nM, No in every other case.

{"COMPOUND": "Cc1cc2c(cc1Cc1ccc(C(=O)N3CCC(Nc4ccnc(NCC5CCCO5)n4)C3)o1)C(C)(C)CCC2(C)C (stereo not shown) [Compound 94.5]", "LABEL": "No"}
{"COMPOUND": "CCOC(=O)[C@H]1CC[C@H](CNC(=O)c2ccc(Cc3cc4c(cc3C)C(C)(C)CCC4(C)C)o2)CC1 [Compound 31]", "LABEL": "No"}
{"COMPOUND": "Cc1cc2c(cc1Cc1ccc(C(N)=O)o1)C(C)(C)CCC2(C)C [AXC- 06675]", "LABEL": "No"}
{"COMPOUND": "Cc1cc2c(cc1Cc1ccc(C(=O)NCc3cccc4ccccc34)o1)C(C)(C)CCC2(C)C [Compound 95]", "LABEL": "Yes"}
{"COMPOUND": "Cc1cc2c(cc1Cc1ccc(C(=O)NCC3CCC(CNc4nccc(NCC5CCCO5)n4)CC3)o1)C(C)(C)CCC2(C)C (stereo not shown) [Compound 92]", "LABEL": "Yes"}
{"COMPOUND": "Cc1cc2c(cc1Cc1ccc(C(=O)NCc3nc4ccccc4[nH]3)o1)C(C)(C)CCC2(C)C [Compound 48]", "LABEL": "Yes"}
{"COMPOUND": "Cc1cc2c(cc1Cc1ccc(C(=O)Nc3ccc4[nH]ncc4c3)o1)C(C)(C)CCC2(C)C [Compound 109]", "LABEL": "No"}

----------
target: human GnRH receptor (Homo sapiens); construct: expressed in transfected cells; host or cells: HEK 293 (hGnRH-R/293, from Dr. Stuart Sealfon); assay: Radioligand binding, 125I-GnRH-A displacement, membranes of HEK 293 cells with human GnRH receptor; settings: 1 h, repeat of % Inhib. at 1 uM; read-out: Repeats @ 1 uM hGnRH
Attribute: inhibition at 1 µM

{"COMPOUND": "Cc1cc2c(cc1Cc1ccc(C(=O)NCc3cccc(F)c3)o1)C(C)(C)CCC2(C)C [drawing 1195]", "TARGET_OF_ASSAY": "human GnRH receptor (Homo sapiens)", "inhibition at 1 µM, %": 82}
{"COMPOUND": "Cc1cc2c(cc1Cc1ccc(C(=O)NCCSCc3c(Cl)cccc3Cl)o1)C(C)(C)CCC2(C)C", "TARGET_OF_ASSAY": "human GnRH receptor (Homo sapiens)", "inhibition at 1 µM, %": 20}
{"COMPOUND": "Cc1cc2c(cc1Cc1ccc(C(=O)NCC3CCN(c4nccc(NCC5CCCO5)n4)CC3)o1)C(C)(C)CCC2(C)C (stereo not shown) [drawing 1037]", "TARGET_OF_ASSAY": "human GnRH receptor (Homo sapiens)", "inhibition at 1 µM, %": 35}
{"COMPOUND": "Cc1cc2c(cc1Cc1ccc(C(=O)N3CCN(c4ccccc4)CC3)o1)C(C)(C)CCC2(C)C [drawing 1092]", "TARGET_OF_ASSAY": "human GnRH receptor (Homo sapiens)", "inhibition at 1 µM, %": 6}

----------
target: mouse GnRH receptor (Mus musculus, UniProt Q01776); construct: expressed in transfected cells; host or cells: 293 cells; test: Radioligand binding, 125I-GnRH-A, 293 cells expressing mouse GnRH receptors; settings: read-out: mGnRH IC50
Sequence (Q01776 whole entry): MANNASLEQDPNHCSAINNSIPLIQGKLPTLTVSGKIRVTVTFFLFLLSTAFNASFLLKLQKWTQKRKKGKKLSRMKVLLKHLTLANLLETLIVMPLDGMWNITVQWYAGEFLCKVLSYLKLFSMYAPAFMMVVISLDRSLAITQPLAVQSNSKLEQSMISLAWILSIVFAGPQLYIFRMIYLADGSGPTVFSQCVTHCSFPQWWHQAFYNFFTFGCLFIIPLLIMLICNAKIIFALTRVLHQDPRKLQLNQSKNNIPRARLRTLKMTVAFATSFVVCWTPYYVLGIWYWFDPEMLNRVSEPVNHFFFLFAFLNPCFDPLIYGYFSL
PROPERTY_LABEL: IC50

{"COMPOUND": "COC(CCCNC(=O)c1ccc(Cc2cc3c(cc2C)C(C)(C)CCC3(C)C)o1)OC", "DATA_VALUE": "1050 nM"}
{"COMPOUND": "Cc1cc2c(cc1Cc1ccc(C(=O)NCC3CCC(CNc4ncc(C#N)c(N)n4)CC3)o1)C(C)(C)CCC2(C)C (stereo not shown)", "DATA_VALUE": "1300 nM"}
{"COMPOUND": "Cc1cc2c(cc1Cc1ccc(C(=O)NCc3ccccc3F)o1)C(C)(C)CCC2(C)C", "DATA_VALUE": "1880 nM"}
{"COMPOUND": "Cc1cc2c(cc1Cc1ccc(C(=O)NCc3cccc(C)c3C)o1)C(C)(C)CCC2(C)C", "DATA_VALUE": "80 nM"}

----------
target: rat GnRH receptor (Rattus norvegicus, UniProt P30969); assay: Radioligand binding, 125I-GnRH-A, rat pituitary membranes; design: membranes were prepared from rat pituitary; from tissue; host or cells: rat pituitary; settings: read-out: rGnRH IC50
Sequence (P30969 whole entry): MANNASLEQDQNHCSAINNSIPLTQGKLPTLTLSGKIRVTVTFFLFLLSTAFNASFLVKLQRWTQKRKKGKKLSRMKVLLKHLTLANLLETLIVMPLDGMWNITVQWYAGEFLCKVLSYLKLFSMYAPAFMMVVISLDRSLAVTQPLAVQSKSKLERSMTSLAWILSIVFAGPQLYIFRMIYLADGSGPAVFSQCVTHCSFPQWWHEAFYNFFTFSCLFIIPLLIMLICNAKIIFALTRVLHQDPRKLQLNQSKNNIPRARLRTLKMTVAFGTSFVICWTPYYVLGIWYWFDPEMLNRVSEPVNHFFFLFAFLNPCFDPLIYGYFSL
# IC50 annotations

{"COMPOUND": "Cc1cc2c(cc1Cc1ccc(C(=O)Nc3ccc(C(N)=O)cc3)o1)C(C)(C)CCC2(C)C [Compound 102]", "TARGET_OF_ASSAY": "rat GnRH receptor (Rattus norvegicus, UniProt P30969)", "IC50 (nM)": 970}
{"COMPOUND": "Cc1cc2c(cc1Cc1ccc(C(=O)NCC3CCC(CNCc4c(C)noc4C)CC3)o1)C(C)(C)CCC2(C)C (stereo not shown)", "TARGET_OF_ASSAY": "rat GnRH receptor (Rattus norvegicus, UniProt P30969)", "IC50 (nM)": 1260}
{"COMPOUND": "Cc1cc2c(cc1Cc1ccc(C(=O)NC[C@H]3CC[C@H](C(N)=O)CC3)o1)C(C)(C)CCC2(C)C", "TARGET_OF_ASSAY": "rat GnRH receptor (Rattus norvegicus, UniProt P30969)", "IC50 (nM)": 270}
{"COMPOUND": "Cc1cc2c(cc1Cc1ccc(C(=O)NCc3ccc(CN)cc3)o1)C(C)(C)CCC2(C)C", "TARGET_OF_ASSAY": "rat GnRH receptor (Rattus norvegicus, UniProt P30969)", "IC50 (nM)": 300}

----------
target: GLP-1 (Homo sapiens)
Sequence (P43220 24-463): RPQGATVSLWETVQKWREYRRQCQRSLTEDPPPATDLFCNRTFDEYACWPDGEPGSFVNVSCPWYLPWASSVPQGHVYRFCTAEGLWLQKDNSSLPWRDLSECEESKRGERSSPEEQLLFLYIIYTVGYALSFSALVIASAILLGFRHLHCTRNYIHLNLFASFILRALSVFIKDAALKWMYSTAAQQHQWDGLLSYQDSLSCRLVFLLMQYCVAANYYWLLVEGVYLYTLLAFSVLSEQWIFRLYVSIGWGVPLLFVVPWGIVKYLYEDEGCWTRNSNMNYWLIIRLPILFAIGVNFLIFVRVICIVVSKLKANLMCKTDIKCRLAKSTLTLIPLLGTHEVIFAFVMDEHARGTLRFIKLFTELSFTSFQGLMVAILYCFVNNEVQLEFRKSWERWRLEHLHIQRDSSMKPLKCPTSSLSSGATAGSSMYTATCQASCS

{"MOLECULE": "COc1cccc(OC)c1NC(=O)c1ccc(Cc2cc3c(cc2C)C(C)(C)CCC3(C)C)o1 [Compound 20]", "Ki": "> 10 µM"}

----------
biological target: mouse GnRH receptor (Mus musculus); construct: expressed in transfected cells; host or cells: 293 cells; assay: Radioligand binding, 125I-GnRH-A, 293 cells expressing mouse GnRH receptors; details: 10 uM; read-out: % Inhib. @ 10 uM mGnRH

{"COMPOUND": "C#CCN(CCC)CCN1CCN(C(=O)c2ccc(Cc3cc4c(cc3C)C(C)(C)CCC4(C)C)o2)CC1", "RESULT_UNIT": "%", "inhibition at 10 µM": 101}
{"COMPOUND": "Cc1ccc(N2CCN(C(=O)c3ccc(Cc4cc5c(cc4C)C(C)(C)CCC5(C)C)o3)CC2C)cc1 (stereo not drawn) [drawing 1276]", "RESULT_UNIT": "%", "inhibition at 10 µM": 73}
{"COMPOUND": "Cc1cc2c(cc1Cc1ccc(C(=O)NCC(O)c3ccccc3)o1)C(C)(C)CCC2(C)C (stereo not drawn) [drawing 1470]", "RESULT_UNIT": "%", "inhibition at 10 µM": 101}

----------
Molecular target: human GnRH receptor (Homo sapiens, UniProt P30968)
Construct: expressed in transfected cells; host or cells: HEK 293 (hGnRH-R/293, from Dr. Stuart Sealfon)
Sequence (P30968 1-328): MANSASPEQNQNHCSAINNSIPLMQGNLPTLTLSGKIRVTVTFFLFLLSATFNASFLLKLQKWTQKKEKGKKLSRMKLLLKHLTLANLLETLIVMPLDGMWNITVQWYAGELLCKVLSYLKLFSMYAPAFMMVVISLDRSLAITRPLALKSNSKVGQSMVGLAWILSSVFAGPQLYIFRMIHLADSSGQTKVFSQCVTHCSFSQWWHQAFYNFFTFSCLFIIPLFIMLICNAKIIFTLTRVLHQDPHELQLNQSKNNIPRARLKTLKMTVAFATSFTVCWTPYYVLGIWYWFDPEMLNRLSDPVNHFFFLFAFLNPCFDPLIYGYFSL
Test: Radioligand binding, 125I-GnRH-A displacement, membranes of HEK 293 cells with human GnRH receptor
Conditions: 1 uM; read-out: % Inhib. @ 1 uM hGnRH

{"COMPOUND": "Cc1cc2c(cc1Cc1ccc(C(=O)NCCCN3CCOCC3)o1)C(C)(C)CCC2(C)C [drawing 978]", "inhibition at 1 µM": "57%"}
{"COMPOUND": "Cc1cc2c(cc1Cc1ccc(C(=O)NC(C)c3ccc(O)cc3)o1)C(C)(C)CCC2(C)C (centres unmarked)", "inhibition at 1 µM": "-10%"}
{"COMPOUND": "COC(=O)CCCCCNC(=O)c1ccc(Cc2cc3c(cc2C)C(C)(C)CCC3(C)C)o1 [drawing 1059]", "inhibition at 1 µM": "85%"}
{"COMPOUND": "Cc1cc2c(cc1Cc1ccc(C(=O)N[C@H](CO)c3ccccc3)o1)C(C)(C)CCC2(C)C", "inhibition at 1 µM": "15%"}
{"COMPOUND": "CNCCCNC(=O)c1ccc(Cc2cc3c(cc2C)C(C)(C)CCC3(C)C)o1 [drawing 1027]", "inhibition at 1 µM": "-22%"}
{"COMPOUND": "CCc1ccc(CCNC(=O)c2ccc(Cc3cc4c(cc3C)C(C)(C)CCC4(C)C)o2)cc1", "inhibition at 1 µM": "29%"}
{"COMPOUND": "CCN(Cc1cc([N+](=O)[O-])ccc1O)C(=O)c1ccc(Cc2cc3c(cc2C)C(C)(C)CCC3(C)C)o1", "inhibition at 1 µM": "-11%"}
{"COMPOUND": "Cc1cc2c(cc1Cc1ccc(C(=O)NCCc3cccc(Oc4ccccc4)c3)o1)C(C)(C)CCC2(C)C [drawing 1039]", "inhibition at 1 µM": "-2%"}
